The measurements presented in this section are drawn from patent US20240270821A1.

- STUDY TARGET: hGIPR (Homo sapiens, UniProt P48546)
- Sequence (P48546 22-466): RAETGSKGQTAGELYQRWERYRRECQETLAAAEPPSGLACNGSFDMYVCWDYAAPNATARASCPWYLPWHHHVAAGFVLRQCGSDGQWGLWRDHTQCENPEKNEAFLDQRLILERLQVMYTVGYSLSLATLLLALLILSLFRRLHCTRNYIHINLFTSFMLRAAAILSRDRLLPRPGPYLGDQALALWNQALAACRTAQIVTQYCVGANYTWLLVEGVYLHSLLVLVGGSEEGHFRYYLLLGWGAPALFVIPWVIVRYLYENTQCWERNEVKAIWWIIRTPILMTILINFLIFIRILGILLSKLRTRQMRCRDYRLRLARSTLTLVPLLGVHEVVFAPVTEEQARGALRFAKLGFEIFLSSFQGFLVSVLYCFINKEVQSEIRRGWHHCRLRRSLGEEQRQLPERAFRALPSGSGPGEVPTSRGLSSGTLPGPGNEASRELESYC
- MEASUREMENT DESCRIPTION: Functional cAMP activation in the presence of 0.1% casein (no HSA);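 note: intracellular cAMP rise after 30 min at 37 °C read by HTRF against a standard curve, scaled between buffer alone (0%) and top control ligand concentration (100%), four-parameter fit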
- Assay type: cell-based
- CONDITION INFO: in the presence of 0.1% casein (no HSA); geometric mean; read-out: Relative cAMP EC50, hGIPR
Starred links: 1 amine or outer side, 2 acyl side, 3 side chain; linkers in the order of their positions; H or OH if unused. Non-standard residues stand in square brackets, D forms with d. Groups on a side chain read outwards from the residue. *: point of attachment. C18 diacid = O=C(O)CCCCCCCCCCCCCCCCC(=O)*; γGlu = O=C(O)[C@H](CCC(=O)[*:2])N[*:1]; αMe4Pal = C[C@](N)(Cc1ccncc1)C(=O)O; αMeF = C[C@](N)(Cc1ccccc1)C(=O)O; 4Pal = N[C@@H](Cc1ccncc1)C(=O)O; αMeL = CC(C)C[C@](C)(N)C(=O)O; AEEA = NCCOCCOCC(=O)O; Aib = CC(C)(N)C(=O)O
Exercise: for every item that follows, state its recorded pEC50.
On this scale, pEC50 is minus log10 of a concentration expressed in M (mol/L).

Req: Fill in: pEC50 of H-Y[Aib]QGTFTSDFSK[αMeL]LDKK([AEEA-γGlu-C18 diacid])AQ[Aib]AFIEYLLEGGPSSGAPPPSGS-NH2 [Example 141] is ___
Resp: 9.68

Req: Fill blank: measured pEC50 of the substance H-Y[Aib]QGTFTSD[4Pal]SQ[αMeL]LDKK([dE-γGlu-C18 diacid])AQ[αMe4Pal]AFIEYLIE[Aib]GPSSGAPPPSGS-NH2 [Example 920] is ____.
Resp: 10.04

Req: If you can, please state the reported pEC50 value of H-Y[Aib]QGT[αMeF]TSDYSILLDKIAAK([AEEA-AEEA-γGlu-C18 diacid])NFIEYLVEGGPSSGEPPPSEG-NH2 [Example 307] .
Resp: 9.35
